- Tested on: Staphylococcus aureus (ATCC29213)
- METHOD SUMMARY: In-vitro anti-bacterial microtitre plate assay, IC90, S. aureus
- Type: cell-based
- RUN PARAMETERS: 90% inhibitory concentration for bacterial growth, 24 hours, resazurin fluorescence
- Method: D.3. […] At the end of incubation, one day after inoculation, the bacterial growth was quantitated fluorometrically. […] The fluorescence was read in a computer-controlled fluorometer (Cytofluor Biosearch) at an excitation wavelength of 530 nm and an emission wavelength of 590 nm. The % growth inhibition achieved by the compounds was calculated according to standard methods.
Please go through the items and note down their IC90 values STA 1 B29213.
Your answer should be a plain number; it is taken to be in mg/L.

Data request: For the compound CC#Cc1ccc2nc(OC)c(C(c3ccccc3)C(O)(CCN(C)C)c3cccc4ccccc34)cc2c1 (single isomer, unassigned) , what IC90 values STA 1 B29213 is on record?
Data returned: 45.9

Data request: For the compound CO/N=C/c1ccc2nc(OC)c(C(c3ccccc3)C(O)(CCN(C)C)c3cccc4ccccc34)cc2c1 (single isomer, unassigned) [Compound 26] , what IC90 values STA 1 B29213 is on record?
Data returned: 53.4

Data request: For the compound CO/N=C/c1ccc2nc(OC)c(C(c3ccccc3)C(O)(CCN(C)C)c3cccc4ccccc34)cc2c1 (single isomer, unassigned) [Compound 25] , what IC90 values STA 1 B29213 is on record?
Data returned: 8.5

Data request: For the compound C=Cc1ccc2nc(OC)c(C(c3ccccc3)C(O)(CCCCN3CCCCC3)c3ccccc3)cc2c1 (single isomer, unassigned) , what IC90 values STA 1 B29213 is on record?
Data returned: 1.7

Data request: For the compound COc1nc2ccc(N)cc2cc1C(c1ccccc1)C(O)(CCN(C)C)c1cccc2ccccc12 (single isomer, unassigned) [Compound 15] , what IC90 values STA 1 B29213 is on record?
Data returned: 7.8

Data request: For the compound COc1nc2ccc(/C=N/O)cc2cc1C(c1ccccc1)C(O)(CCCCN(C)C)c1ccc2ccccc2c1 (single isomer, unassigned) , what IC90 values STA 1 B29213 is on record?
Data returned: 1.7

Data request: For the compound COc1nc2ccc(N3CCOCC3)cc2cc1C(c1ccccc1)C(O)(CCN(C)C)c1ccccc1 (single isomer, unassigned) , what IC90 values STA 1 B29213 is on record?
Data returned: 51.2

Data request: For the compound COc1nc2ccc(/C=N/O)cc2cc1C(c1ccccc1)C(O)(CCN(C)C)c1cccc2ccccc12 (single isomer, unassigned) , what IC90 values STA 1 B29213 is on record?
Data returned: 6.5

Where do the numbers come from? From patent US8415475B2.
